Values were extracted from patent US20250002471A1.

Target: TLR7 (Homo sapiens, UniProt Q9NYK1)
Construct: lymphocytes, monocytes and dendritic cells that express TLR7, TLR8 and TLR9; endogenous in cells; host or cells: human PBMCs from healthy donors
Sequence (Q9NYK1 27-1049): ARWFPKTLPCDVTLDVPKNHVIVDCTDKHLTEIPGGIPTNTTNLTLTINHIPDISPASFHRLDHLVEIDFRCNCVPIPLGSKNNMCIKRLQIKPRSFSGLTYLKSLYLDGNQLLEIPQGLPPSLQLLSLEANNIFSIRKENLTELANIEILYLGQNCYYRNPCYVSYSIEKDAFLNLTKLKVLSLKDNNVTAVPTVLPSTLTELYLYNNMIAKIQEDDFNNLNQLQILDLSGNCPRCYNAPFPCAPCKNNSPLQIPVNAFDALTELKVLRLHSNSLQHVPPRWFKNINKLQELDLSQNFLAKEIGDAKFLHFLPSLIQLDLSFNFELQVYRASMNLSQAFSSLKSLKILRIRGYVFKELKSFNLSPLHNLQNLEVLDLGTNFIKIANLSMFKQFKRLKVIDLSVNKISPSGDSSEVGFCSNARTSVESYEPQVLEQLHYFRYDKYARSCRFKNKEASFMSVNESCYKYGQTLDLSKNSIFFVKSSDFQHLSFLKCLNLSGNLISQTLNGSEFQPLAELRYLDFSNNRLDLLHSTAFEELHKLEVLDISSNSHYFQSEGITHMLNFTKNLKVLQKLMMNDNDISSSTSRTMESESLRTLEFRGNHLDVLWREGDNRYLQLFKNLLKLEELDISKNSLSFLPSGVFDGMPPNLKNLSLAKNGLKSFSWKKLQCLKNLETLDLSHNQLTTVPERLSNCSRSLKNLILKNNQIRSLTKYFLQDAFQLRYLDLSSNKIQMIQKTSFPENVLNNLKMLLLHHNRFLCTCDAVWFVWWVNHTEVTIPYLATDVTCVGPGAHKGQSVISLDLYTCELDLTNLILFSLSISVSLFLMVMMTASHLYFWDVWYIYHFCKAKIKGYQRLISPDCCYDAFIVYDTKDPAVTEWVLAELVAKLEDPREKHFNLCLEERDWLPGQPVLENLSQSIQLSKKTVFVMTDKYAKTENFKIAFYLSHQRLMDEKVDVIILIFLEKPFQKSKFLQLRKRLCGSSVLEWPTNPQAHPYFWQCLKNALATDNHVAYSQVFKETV
Assay: Human PBMC cell-based assay, TLR7 agonist GS-986 stimulation, cytokine (IL-6 and IFNα) readout
Settings: human PBMCs, GS-986 400 nM, 6 hours; Table 26; read-out: TLR-7 EC50
pEC50: −log10 of the molar value.
MEASUREMENT_NAME: pEC50

Solved entries:
INSERT INTO results (molecule, assayed_system, value) VALUES
  ('Cc1cc(-c2[nH]c3cc(-c4ccc(N)nc4)ccc3c2C)cc(C)n1 [Example 5]', 'TLR7 (Homo sapiens, UniProt Q9NYK1)', 6.81),
  ('CCc1c(-c2cc(OC)c3ncnn3c2)[nH]c2cc(-c3ccc(N4CCN(C(=O)C56CC(CN5)C6)CC4)nc3)ccc12 [Example 174]', 'TLR7 (Homo sapiens, UniProt Q9NYK1)', 9.92),
  ('Cc1c(-c2cc(C)c3ncnn3c2)[nH]c2cc(-c3ccc(N4CCNCC4)nc3)ccc12 [Example 71]', 'TLR7 (Homo sapiens, UniProt Q9NYK1)', 8.92);

I: Cc1cc(-c2[nH]c3cc(-c4ccc(N5CCN(CC(=O)N(C)C)CC5)nc4)ccc3c2C)cc(C)n1 [Example 116]
II: Cc1cc(-c2[nH]c3cc(C4CCNCC4)ccc3c2C)cc(C)n1 [Example 48]
III: COc1cc(-c2[nH]c3cc(-c4ccc(N5CCNCC5)nc4)ccc3c2C)cc(C)n1 [Example 79]
I would appreciate it if you could sort these 3 molecules by pEC50, starting from the smallest number. Answer by listing the labels in the order asked for. II, I, III
(II: 6.16, I: 6.86, III: 7.96)

1: Cc1cc(-c2[nH]c3cc(-c4ccc5c(c4)CCNC5)ccc3c2C)cc(C)n1 [Example 13]
2: Cc1cc(-c2[nH]c3cc(-c4ccc(N5CCNCC5)nc4)ccc3c2C)cc(C)n1 [Example 1]
3: Cc1cc(-c2[nH]c3cc(-c4ccc(N5CCNCC5)nc4)ccc3c2C2CC2)cn2ncnc12 [Example 175]
Sort by pEC50, descending. Answer by listing the labels in the order asked for. 3, 2, 1
(3: 9.82, 2: 7.74, 1: 6.99)
